Assay Notes: Serum and epithelial lining fluid (ELF) pharmacokinetics of ceftazidime-avibactam human simulated regimen in infected and uninfected mice
Run Parameters: female, ICR, mouse, epithelial lining fluid (ELF) vs serum, ELF point Penetration Ratio, infected mice; 24 h; ELF vs serum, third dosing interval
Measured Kp at 24 h, listed per entry for reference.
No unit in the answer, only the number.

- Cpd Smiles: "CC(C)(O/N=C(\\C(=O)N[C@@H]1C(=O)N2C(C(=O)[O-])=C(C[n+]3ccccc3)CS[C@H]12)c1csc(N)n1)C(=O)O"
  Kp at 24 h: 0.95

Here is the next item to consider.
## Task Look up and state reported Kp at 24 h for NC(=O)[C@@H]1CC[C@@H]2CN1C(=O)N2OS(=O)(=O)[O-].[Na+]
## Result 0.8
